Molecular target: Serine/threonine-protein kinase pim-2 (Homo sapiens) (UniProt Q9P1W9)
Sequence (Q9P1W9 whole entry, looked up): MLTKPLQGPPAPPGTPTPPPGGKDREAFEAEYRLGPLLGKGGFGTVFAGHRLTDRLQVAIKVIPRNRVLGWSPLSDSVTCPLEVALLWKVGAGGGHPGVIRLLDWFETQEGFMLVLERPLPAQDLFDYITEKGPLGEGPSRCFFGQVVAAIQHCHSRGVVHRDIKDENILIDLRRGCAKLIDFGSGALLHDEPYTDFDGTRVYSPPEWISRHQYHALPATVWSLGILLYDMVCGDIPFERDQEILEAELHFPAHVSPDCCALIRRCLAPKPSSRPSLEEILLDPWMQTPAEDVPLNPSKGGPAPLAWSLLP
Assay: Competitive binding affinity to PIM2 (unknown origin) at 10 uM in presence of ATP relative to control
Item-by-item account of inhibition
Give a bare numeral; the unit % is implied.

As a guide, the following entries are already answered.
>  <SMILES STRUCTURE>
O[C@H]1CC[C@H](Nc2nccc(-c3n[nH]c4ccccc34)n2)CC1

>  <inhibition [%]>
100

$$$$
>  <SMILES STRUCTURE>
N[C@H]1CC[C@H](Nc2nccc(-n3nnc4ccccc43)n2)CC1

>  <inhibition [%]>
99

$$$$
>  <SMILES STRUCTURE>
O=C([C@H]1CC[C@H](Nc2nccc(-n3nnc4ccccc43)n2)CC1)N1CCOCC1

>  <inhibition [%]>
78

$$$$
>  <SMILES STRUCTURE>
O[C@H]1CC[C@H](Nc2nccc(-n3ncc4ccccc43)n2)CC1

>  <inhibition [%]>
99

$$$$
>  <SMILES STRUCTURE>
O[C@H]1CC[C@H](Nc2nccc(-n3ccc4ccccc43)n2)CC1

>  <inhibition [%]>
86

$$$$

Consider the record given below.
Value lookup for inhibition; key = O[C@H]1CC[C@H](Nc2nccc(-n3nnc4ccccc43)n2)CC1 98

Reference for the values: ChEMBL document CHEMBL2424622
